Each recorded value in this set is attributed to ChEMBL document CHEMBL3627663.

biological target: Xanthine dehydrogenase/oxidase (Bos taurus, UniProt P80457); assay: Inhibition of bovine XO at 10 ug/ml using xanthine as substrate after 120 mins by spectrophotometric analysis; conditions: cattle, 2 h
Sequence (P80457 whole entry): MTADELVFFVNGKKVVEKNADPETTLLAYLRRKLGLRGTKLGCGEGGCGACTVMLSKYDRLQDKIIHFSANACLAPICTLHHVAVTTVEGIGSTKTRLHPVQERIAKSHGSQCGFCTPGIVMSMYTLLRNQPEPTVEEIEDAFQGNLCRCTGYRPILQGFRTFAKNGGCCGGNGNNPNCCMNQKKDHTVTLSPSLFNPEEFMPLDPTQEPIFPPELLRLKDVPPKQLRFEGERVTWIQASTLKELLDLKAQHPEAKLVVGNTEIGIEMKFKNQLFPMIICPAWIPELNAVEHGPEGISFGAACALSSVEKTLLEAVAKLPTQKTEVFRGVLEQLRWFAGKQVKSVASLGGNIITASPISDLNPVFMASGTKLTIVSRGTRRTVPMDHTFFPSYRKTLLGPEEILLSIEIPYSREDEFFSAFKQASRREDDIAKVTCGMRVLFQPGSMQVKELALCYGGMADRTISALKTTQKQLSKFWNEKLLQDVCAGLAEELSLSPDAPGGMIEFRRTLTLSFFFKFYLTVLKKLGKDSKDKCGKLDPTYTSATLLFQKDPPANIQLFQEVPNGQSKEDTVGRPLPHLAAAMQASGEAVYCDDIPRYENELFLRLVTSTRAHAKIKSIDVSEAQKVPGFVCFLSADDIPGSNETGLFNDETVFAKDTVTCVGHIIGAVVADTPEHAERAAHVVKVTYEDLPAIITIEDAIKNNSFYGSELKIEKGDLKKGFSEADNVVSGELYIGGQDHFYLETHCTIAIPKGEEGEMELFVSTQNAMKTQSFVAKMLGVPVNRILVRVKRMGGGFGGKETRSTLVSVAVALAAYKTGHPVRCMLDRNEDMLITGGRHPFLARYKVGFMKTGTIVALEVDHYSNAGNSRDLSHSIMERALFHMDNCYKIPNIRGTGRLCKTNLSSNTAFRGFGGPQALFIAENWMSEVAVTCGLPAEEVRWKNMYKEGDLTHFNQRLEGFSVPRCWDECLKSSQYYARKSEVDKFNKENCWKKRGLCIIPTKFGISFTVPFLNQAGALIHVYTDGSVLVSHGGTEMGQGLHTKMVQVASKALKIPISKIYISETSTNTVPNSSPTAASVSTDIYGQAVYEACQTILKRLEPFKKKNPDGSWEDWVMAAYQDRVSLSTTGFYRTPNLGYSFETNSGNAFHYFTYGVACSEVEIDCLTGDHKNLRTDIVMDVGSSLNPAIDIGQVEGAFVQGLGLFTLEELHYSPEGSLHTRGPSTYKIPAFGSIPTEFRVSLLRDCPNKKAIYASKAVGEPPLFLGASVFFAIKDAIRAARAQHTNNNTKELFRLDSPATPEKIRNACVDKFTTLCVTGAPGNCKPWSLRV
recorded_metric: inhibition (INH) (%)

{"molecule": "CCC(C)Oc1ccc(-c2nc(C)c(C(=O)O)n2O)cc1C#N (configuration not stated)", "inhibition (INH) / %": 88.33}
{"molecule": "CCCCOc1ccc(-c2nc(C)c(C(=O)O)n2OC)cc1C#N", "inhibition (INH) / %": 41.19}
{"molecule": "CCCCCCCOc1ccc(-c2nc(C)c(C(=O)O)n2OC)cc1C#N", "inhibition (INH) / %": 26.8}
{"molecule": "CCCCCCCCOc1ccc(-c2nc(C)c(C(=O)O)n2O)cc1C#N", "inhibition (INH) / %": 88.17}
{"molecule": "Cc1nc(-c2ccc(OCC(C)C)c(C#N)c2)n(O)c1C(=O)O", "inhibition (INH) / %": 94.08}

A: COc1ccc(-c2nc(C)c(C(=O)O)n2OC)cc1C#N
B: CCCCCCOc1ccc(-c2nc(C)c(C(=O)O)n2O)cc1C#N
C: CCCOc1ccc(-c2nc(C)c(C(=O)O)n2OC)cc1C#N
D: COn1c(-c2ccc(OCC(C)C)c(C#N)c2)nc(C)c1C(=O)O
Enquiry: // ranking: key=inhibition (INH), reverse=True Quick reminder: the answer is the labels in the order asked.
Return: B, D, C, A
(B: 92.51%, D: 31.91%, C: 18.34%, A: 10.68%)

a: Cc1nc(-c2ccc(OC(C)C)c(C#N)c2)n(O)c1C(=O)O
b: CCCCCCCCOc1ccc(-c2nc(C)c(C(=O)O)n2OC)cc1C#N
Enquiry: // select label with min value of measured inhibition (INH) from [ a , b ] Please indicate the selected item by its label.
Return: b
(b: 19%, a: 91.04%)
